# Tested on: stable HCV 1a RLuc replicon cells (genotype 1a H77 replicon)
# assayComment: microbe, parasite or virus in culture
# Type: cell-based
# settings: Hepatitis C virus, read-out: 1a (nM)
Friendly reminder: EC50 below 0.02 nM is 1, at or above is 0.

Dear colleague, could you confirm whether EC50 of COC(=O)N[C@H](C(=O)N1[C@@H](C)CC[C@H]1c1ncc(-c2ccc3c(c2)COc2cc4c(ccc5nc([C@@H]6CCCN6C(=O)[C@@H](NC(=O)OC)[C@@H](C)OC)[nH]c54)cc2-3)[nH]1)C(C)C falls below 0.02 nM? Thanks. 1

Dear colleague, could you confirm whether EC50 of COC(=O)N[C@H](C(=O)N1[C@@H](C)CC[C@H]1c1ncc(-c2ccc3c(c2)COc2cc4c(ccc5nc([C@@H]6CCCN6C(=O)[C@H](NC(=O)OC)c6ccccc6)[nH]c54)cc2-3)[nH]1)C(C)C falls below 0.02 nM? Thanks. 1

Dear colleague, could you confirm whether EC50 of COC(=O)N[C@H](C(=O)N1CCC[C@H]1c1nc2ccc3cc4c(cc3c2[nH]1)OCc1cc(-c2cnc([C@@H]3CCCN3C(=O)[C@H](NC(=O)C3CC3)c3ccccc3)[nH]2)ccc1-4)C(C)C falls below 0.02 nM? Thanks. 0

Dear colleague, could you confirm whether EC50 of COC[C@H]1C[C@@H](c2nc3ccc4cc5c(cc4c3[nH]2)OCc2cc(-c3cnc([C@@H]4CCCN4C(=O)[C@H](NC(=O)OC)c4ccccc4)[nH]3)ccc2-5)N(C(=O)[C@@H](NC(=O)OC)C(C)C)C1 falls below 0.02 nM? Thanks. 0

Dear colleague, could you confirm whether EC50 of COC[C@H]1C[C@@H](c2nc3ccc4cc5c(cc4c3[nH]2)OCc2cc(-c3cnc([C@@H]4CCCN4C(=O)[C@@H](NC(=O)OC)C(C)C)[nH]3)ccc2-5)N(C(=O)[C@H](NC(=O)OC)c2ccccc2)C1 falls below 0.02 nM? Thanks. 1

Dear colleague, could you confirm whether EC50 of COC[C@H]1C[C@@H](c2ncc(-c3ccc4c(c3)COc3cc5c(ccc6nc([C@@H]7CCCN7C(=O)[C@H](NC(=O)OC)c7ccccc7)[nH]c65)cc3-4)[nH]2)N(C(=O)[C@@H](NC(=O)OC)[C@@H](C)OC)C1 falls below 0.02 nM? Thanks. 0

Dear colleague, could you confirm whether EC50 of COC(=O)N[C@H](C(=O)N1[C@@H](C)CC[C@H]1c1nc2ccc3cc4c(cc3c2[nH]1)OCc1cc(-c2cnc([C@@H]3C[C@H](C)CN3C(=O)[C@H](NC(=O)OC)c3ccccc3)[nH]2)ccc1-4)C(C)C falls below 0.02 nM? Thanks. 1

Dear colleague, could you confirm whether EC50 of COC(=O)N[C@H](C(=O)N1CCC[C@H]1c1ncc(-c2ccc3c(c2)COc2cc4c(ccc5nc([C@@H]6C[C@H](C)CN6C(=O)[C@H](NC(=O)OC)c6ccccc6)[nH]c54)cc2-3)[nH]1)C(C)C falls below 0.02 nM? Thanks. 1

Dear colleague, could you confirm whether EC50 of COC[C@H]1C[C@@H](c2ncc(-c3ccc4c(c3)COc3cc5c(ccc6nc([C@@H]7CC[C@H](C)N7C(=O)[C@@H](NC(=O)OC)C(C)C)[nH]c65)cc3-4)[nH]2)N(C(=O)[C@@H](NC(=O)OC)[C@H](C)OC)C1 falls below 0.02 nM? Thanks. 1

Dear colleague, could you confirm whether EC50 of CC[C@H](C)[C@H](NC(=O)OC)C(=O)N1C[C@@H](COC)C[C@H]1c1ncc(-c2ccc3c(c2)COc2cc4c(ccc5nc([C@@H]6CC[C@H](C)N6C(=O)[C@@H](NC(=O)OC)C(C)C)[nH]c54)cc2-3)[nH]1 falls below 0.02 nM? Thanks. 1

Dear colleague, could you confirm whether EC50 of COC(=O)N[C@H](C(=O)N1CCC[C@H]1c1nc2c([nH]1)-c1cc3c(cc1CC2)-c1ccc(-c2cnc([C@@H]4CCCN4C(=O)[C@H](NC(=O)C4CC4)c4ccccc4)[nH]2)cc1CO3)C(C)C falls below 0.02 nM? Thanks. 0

Dear colleague, could you confirm whether EC50 of COC[C@H]1C[C@@H](c2nc3ccc4cc5c(cc4c3[nH]2)OCc2cc(-c3cnc([C@@H]4C[C@H](C)CN4C(=O)[C@@H](NC(=O)OC)C(C)C)[nH]3)ccc2-5)N(C(=O)[C@H](NC(=O)OC)c2ccccc2)C1 falls below 0.02 nM? Thanks. 1

Dear colleague, could you confirm whether EC50 of COC[C@H]1C[C@@H](c2ncc(-c3ccc4c(c3)COc3cc5c(ccc6nc([C@@H]7C[C@@H]8C[C@@H]8N7C(=O)[C@@H](NC(=O)OC)C(C)C)[nH]c65)cc3-4)[nH]2)N(C(=O)[C@H](NC(=O)OC)c2ccccc2)C1 falls below 0.02 nM? Thanks. 1

Dear colleague, could you confirm whether EC50 of COC(=O)N[C@H](C(=O)N1CCC[C@H]1c1ncc(-c2ccc3c(c2)COc2cc4c(cc2-3)CCc2nc([C@@H]3CCCN3C(=O)[C@H](NC(=O)C3CC3)c3ccccc3)[nH]c2-4)[nH]1)C(C)C falls below 0.02 nM? Thanks. 0

Dear colleague, could you confirm whether EC50 of COC[C@H]1C[C@@H](c2nc3ccc4cc5c(cc4c3[nH]2)OCc2cc(-c3cnc([C@@H]4CCCN4C(=O)[C@@H](NC(=O)OC)C(C)C)[nH]3)ccc2-5)N(C(=O)[C@H](N)c2ccccc2)C1 falls below 0.02 nM? Thanks. 0

Dear colleague, could you confirm whether EC50 of CCO[C@H]1C[C@@H](c2nc3ccc4cc5c(cc4c3[nH]2)OCc2cc(-c3cnc([C@@H]4CCCN4C(=O)[C@@H](NC(=O)OC)C(C)C)[nH]3)ccc2-5)N(C(=O)[C@@H](NC(=O)OC)C(C)C)C1 falls below 0.02 nM? Thanks. 1
